FYI, the data here is from the METLIN SMRT retention time set (Domingo-Almenara et al. 2019).

Assay: gradient 5% acetonitrile 3 min, to 50% in 2 min, to 85% in 15 min, held 3 min, 100 µL/min
Details: column: Zorbax Extend-C18 2.1 x 50 mm; eluents: water / acetonitrile, 0.1% formic acid
MEASURE NAME: RP-LC retention time (s)

• O=C(CN1CCN(Cc2ccccc2)C1=O)NCc1cccc(Cl)c1 = 822
• Cc1noc(C)c1C1CCCN1C(=O)Cc1cccc(Cl)c1 (configuration not stated) = 810
• O=C(Nc1ccc(N2CCN(C3CCCCC3)C2=O)nc1)c1ccc2c(c1)OCO2 = 808
• COc1ccc(NC(=O)Cn2c(=O)c3cc(-c4ccco4)nn3c3ncccc32)c(OC)c1 = 797
• COC(=O)c1nnn(-c2ccc(OC)cc2)c1C(=O)OC = 815
• Cc1ccc(CCNC(=O)Cn2c(C)nc3onc(C)c3c2=O)cc1 = 787
• Cc1nc(-c2cccnc2)n2c(=O)n(CCc3ccccc3)nc2c1C = 786
